Reference source for all entries: paper PMC9592910

# Experiment: Pharmacokinetics of GQD constituents in the systemic circulation of mice after oral GQD
# Type: in vivo, Kunming mice
# Condition Info: both, Kunming, mouse; systemic circulation plasma, mice, oral GQD 6.1 g/kg
I'd be grateful if you could share measured log10(Cmax) for these entries.
Heads up: the numbers are on a log10 scale; they represent Cmax in µg/mL.

The cases that follow already have their log10(Cmax) on record.
Compound	Number
O=c1c(-c2ccc(O)cc2)coc2c([C@@H]3O[C@H](CO)[C@@H](O)[C@H](O)[C@H]3O)c(O)ccc12 [Puerarin, puerarin]	0.20
COc1ccc2c(c1O)-c1c(O)c(OC)cc3c1[C@H](C2)[N+](C)(C)CC3 [Magnoflorine, magnoflorine]	-1.65

Lab note: each compound below needs its log10(Cmax) filled in.
1. O=C(O)[C@H]1O[C@@H](Oc2cc3oc(-c4ccccc4)cc(=O)c3c(O)c2O)[C@H](O)[C@@H](O)[C@@H]1O [Baicalin, baicalin]
2. COc1cc2c(cc1O)CC[n+]1cc3c(OC)c(OC)ccc3cc1-2 [Jatrorrhizine, jatrorrhizine]
3. O=c1cc(-c2ccccc2)oc2cc(O)c(O)c(O)c12 [Baicalein, baicalein]

Reply text:
1: 0.16; 2: -2.00; 3: -1.57

State the recorded log10(Cmax) for every item in the following list.
1. COc1c(O)cc(O)c2c(=O)cc(-c3ccccc3)oc12 [Wogonin, wogonin]
2. COc1ccc2cc3[n+](cc2c1OC)CCc1cc2c(cc1-3)OCO2 [Berberine, berberine]
3. CC1(C)[C@@H](O)CC[C@]2(C)[C@H]3C(=O)C=C4[C@@H]5C[C@@](C)(C(=O)O)CC[C@]5(C)CC[C@@]4(C)[C@]3(C)CC[C@@H]12 [Glycyrrhetinic acid, glycyrrhetinic acid]

Reply text:
1. -1.19
2. -1.07
3. -0.71
